Where do these numbers come from? They come from PubChem BioAssay AID2060496.

- Test system: 276233-004-R-J1-PDC complex spheroid viability;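 note: spheroids exposed to drugs for seven days; 100% = DMSO vehicle control viability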
- Assay Text: Anticancer human tumor 276233-004-R-J1-PDC patient-derived colon adenocarcinoma cell line growth inhibition [GQUAD]
- Condition Set: second compound 3.16 µM; first compound 0.00316 µM; active compounds read low
Reported values of viability, T/C for individual entries
Kindly answer with a numeric value in %, unit omitted.

Known viability, T/C results, listed for orientation:
CC[C@@]1(O)C(=O)OCc2c1cc1n(c2=O)Cc2cc3c(CN(C)C)c(O)ccc3nc2-1 + CN(C)c1ccc(Nc2c3ccc(NC(=O)CCN4CCCC4)cc3nc3cc(NC(=O)CCN4CCCC4)ccc23)cc1 : 61.3
CC[C@@]1(O)C(=O)OCc2c1cc1n(c2=O)Cc2cc3c(CN(C)C)c(O)ccc3nc2-1 + Cc1cnc(CNC(=O)c2c(=O)c3ccc(N4CCCN(C)CC4)nc3n3c2sc2ccccc23)cn1 : 84
Cn1ncnc1[C@H]1c2n[nH]c(=O)c3cc(F)cc(c23)N[C@@H]1c1ccc(F)cc1 + Cc1cnc(CNC(=O)c2c(=O)c3ccc(N4CCCN(C)CC4)nc3n3c2sc2ccccc23)cn1 : 71.5

Now examine the next entry.
viability, T/C measured on CCc1c2c(nc3ccc(O)cc13)-c1cc3c(c(=O)n1C2)COC(=O)[C@]3(O)CC + Cc1cnc(CNC(=O)c2c(=O)c3ccc(N4CCCN(C)CC4)nc3n3c2sc2ccccc23)cn1 = 96.1
